A collection of molecules and their measured pIC50
Biological target: His-BIR3 (241-356, XIAP) (Homo sapiens, UniProt P98170)
Construct: additions of His-BIR3 (241-356, XIAP), fluorescein labeled SMAC peptide
Sequence (P98170 241-356): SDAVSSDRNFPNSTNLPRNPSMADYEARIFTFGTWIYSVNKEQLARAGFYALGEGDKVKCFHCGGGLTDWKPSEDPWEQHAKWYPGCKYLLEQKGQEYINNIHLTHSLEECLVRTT
Assay: XIAP-BIR3/SMAC Homogeneous Time Resolved Fluorescence (HTRF) Assay
Conditions: Table 4
pIC50: −log10 of the molar value.

CN[C@@H](C)C(=O)N[C@H](C(=O)N1C[C@@H]2C[C@H]1C(=O)N[C@@H](Cc1ccc3ccccc3c1)C(=O)N[C@H](C(=O)O)Cc1ccc(cc1)OCc1cn(nn1)[C@H]1C[C@@H](C(=O)N[C@@H](Cc3ccc4ccccc4c3)C(=O)N[C@H](C(=O)N(C)CCC(=O)O)Cc3ccc(cc3)OCc3cn2nn3)N(C(=O)[C@@H](NC(=O)[C@H](C)NC)C(C)(C)C)C1)C(C)(C)C : > 8.00

Please look at the following molecule next.
Task: Report pIC50, nothing else, for this molecule: CN[C@@H](C)C(=O)N[C@H](C(=O)N1CCN2CCn3cc(nn3)C[C@@H](C(=O)OC)NC(=O)[C@H](Cc3ccc4ccccc4c3)NC(=O)[C@@H]3CN(CCN3C(=O)[C@@H](NC(=O)[C@H](C)NC)C(C)C)CCn3cc(nn3)C[C@@H](C(=O)O)NC(=O)[C@H](Cc3ccc4ccccc4c3)NC(=O)[C@@H]1C2)C(C)C
Result: < 7.00

---

Target: His-BIR2-3 (125-356, C202A/C213G, XIAP) (Homo sapiens, UniProt P98170, C202A/C213G)
Construct: additions of His-BIR2-3 (125-356, C202A/C213G, XIAP), fluorescein labeled dimeric SMAC peptide
Sequence (P98170 125-356 C202A/C213G): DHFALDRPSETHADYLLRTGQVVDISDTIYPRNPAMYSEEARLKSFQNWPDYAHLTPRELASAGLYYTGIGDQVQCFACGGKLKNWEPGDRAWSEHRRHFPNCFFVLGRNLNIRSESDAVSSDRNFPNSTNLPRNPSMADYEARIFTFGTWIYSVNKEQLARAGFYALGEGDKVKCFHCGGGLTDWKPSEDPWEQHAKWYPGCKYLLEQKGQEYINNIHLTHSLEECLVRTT
Experiment: XIAP-BIR2-3 Dimeric SMAC Peptide Homogeneous Time Resolved Fluorescence (HTRF) Assay
Settings: XIAP BIR2-3, HTRF, Table 4
A collection of molecules and their measured IC50

Use the examples below as a reference point.
CN[C@@H](C)C(=O)N[C@H](C(=O)N1C[C@@H]2C[C@H]1C(=O)N[C@@H](Cc1ccc3ccccc3c1)C(=O)N[C@H](C(=O)O)Cc1ccc(cc1)OCc1cn(nn1)[C@H]1C[C@@H](C(=O)N[C@@H](Cc3ccc4ccccc4c3)C(=O)N[C@H](C(=O)N[C@@H](CC(=O)O)C(=O)N[C@H](CCSC)C(=O)O)Cc3ccc(cc3)OCc3cn2nn3)N(C(=O)[C@@H](NC(=O)[C@H](C)NC)C(C)(C)C)C1)C(C)(C)C : > 10 nM
CN[C@@H](C)C(=O)N[C@H](C(=O)N1C[C@@H]2C[C@H]1C(=O)N[C@@H](Cc1ccc3ccccc3c1)C(=O)N[C@H](C(=O)O)Cc1ccc(cc1)NC(=O)CCc1cn(nn1)[C@H]1C[C@@H](C(=O)N[C@@H](Cc3ccc4ccccc4c3)C(=O)N[C@H](C(=O)O)Cc3ccc(cc3)NC(=O)CCc3cn2nn3)N(C(=O)[C@@H](NC(=O)[C@H](C)NC)C(C)(C)C)C1)C(C)(C)C : 1 to 10 nM
CN[C@@H](C)C(=O)N[C@H](C(=O)N1C[C@@H]2C[C@H]1C(=O)N[C@@H](Cc1ccc3ccccc3c1)C(=O)N[C@H](C(=O)O)Cc1ccc(cc1)OCc1cn(nn1)[C@H]1C[C@@H](C(=O)N[C@@H](Cc3ccc4ccccc4c3)C(=O)N[C@H](C(=O)NS(=O)(=O)c3ccncc3)Cc3ccc(cc3)OCc3cn2nn3)N(C(=O)[C@@H](NC(=O)[C@H](C)NC)C(C)(C)C)C1)C(C)(C)C : ≤ 1 nM
CN[C@@H](C)C(=O)N[C@H](C(=O)N1C[C@@H]2C[C@H]1C(=O)N[C@@H](Cc1ccc3ccccc3c1)C(=O)N[C@H](C(=O)O)Cc1ccc(cc1)OCc1cn(nn1)[C@H]1C[C@@H](C(=O)N[C@@H](Cc3ccc4ccccc4c3)C(=O)N[C@H](C(=O)NCc3ccc(-c4nnn[nH]4)cc3)Cc3ccc(cc3)OCc3cn2nn3)N(C(=O)[C@@H](NC(=O)[C@H](C)NC)C(C)(C)C)C1)C(C)(C)C : 1 to 10 nM

Please look at the following molecule next.
Task: Report IC50, nothing else, for this molecule: CN[C@@H](C)C(=O)N[C@H](C(=O)N1C[C@@H]2C[C@H]1C(=O)N[C@@H](Cc1ccc3ccccc3c1)C(=O)N[C@H](C(=O)O)Cc1ccc(cc1)OCc1cn(nn1)[C@H]1C[C@@H](C(=O)N[C@@H](Cc3ccc4ccccc4c3)C(=O)N[C@H](C(=O)NCc3cccc(-c4nnn[nH]4)c3)Cc3ccc(cc3)OCc3cn2nn3)N(C(=O)[C@@H](NC(=O)[C@H](C)NC)C(C)(C)C)C1)C(C)(C)C [Compound 1025]
Result: 1 to 10 nM

---

Target: N-His-Tb-BIR3(241-356, XIAP) (Homo sapiens)
Sequence (P98170 241-356): as the sequence (P98170 241-356) above
Assay: XIAP-BIR3 SMAC Peptide Fluorescence Polarization Assay (FPA)
Format: binding
RECORDED_METRIC: IC50

Use the examples below as a reference point.
CN[C@@H](C)C(=O)N[C@H](C(=O)N1C[C@@H]2C[C@H]1C(=O)N[C@@H](Cc1ccccc1)C(=O)N(C)[C@H](C(=O)O)Cc1ccc(cc1)OCc1cn(nn1)[C@H]1C[C@@H](C(=O)N[C@@H](Cc3ccccc3)C(=O)N(C)[C@H](C(=O)O)Cc3ccc(cc3)OCc3cn2nn3)N(C(=O)[C@@H](NC(=O)[C@H](C)NC)C(C)C)C1)C(C)C : < 0.05 µM
CN[C@@H](C)C(=O)N[C@H](C(=O)N1C[C@@H]2C[C@H]1C(=O)N[C@@H](Cc1ccc3ccccc3c1)C(=O)N[C@H](C(=O)O)Cc1ccc(cc1)OCc1ccc(cc1)-c1cn(nn1)[C@H]1C[C@@H](C(=O)N[C@@H](Cc3ccc4ccccc4c3)C(=O)N[C@H](C(=O)O)Cc3ccc(cc3)OCc3cn2nn3)N(C(=O)[C@@H](NC(=O)[C@H](C)NC)C(C)(C)C)C1)C(C)(C)C : 0.05 to 0.1 µM

Task: Report IC50, nothing else, for this compound: CN[C@@H](C)C(=O)N[C@H](C(=O)N1C[C@@H]2C[C@H]1C(=O)N[C@@H](Cc1ccc3ccccc3c1)C(=O)N(C)[C@H](C(=O)O)Cc1ccc(cc1)OCc1cn(nn1)[C@H]1C[C@@H](C(=O)N[C@@H](Cc3ccc4ccccc4c3)C(=O)N(C)[C@H](C(=O)O)Cc3ccc(cc3)OCc3cn2nn3)N(C(=O)[C@@H](NC(=O)[C@H](C)NC)C(C)C)C1)C(C)C
Result: 0.05 to 0.1 µM

---

Molecular target: His-BIR2-3 (125-356, C202A/C213G, XIAP) (Homo sapiens, UniProt P98170, C202A/C213G)
Construct: additions of His-BIR2-3 (125-356, C202A/C213G, XIAP), fluorescein labeled dimeric SMAC peptide
Assay: XIAP-BIR2-3 Dimeric SMAC Peptide Homogeneous Time Resolved Fluorescence (HTRF) Assay
Type: binding
Settings: XIAP BIR2-3, HTRF, Table 4
pIC50: −log10 of the molar value.
RECORDED_METRIC: pIC50

CN[C@@H](C)C(=O)N[C@H](C(=O)N1C[C@@H]2C[C@H]1C(=O)N[C@@H](Cc1ccc3ccccc3c1)C(=O)N[C@H](C(=O)O)Cc1ccc(cc1)OCc1cn(nn1)[C@H]1C[C@@H](C(=O)N[C@@H](Cc3ccc4ccccc4c3)C(=O)N[C@H](C(=O)NCC[C@@H](O)C[C@@H](O)CC(=O)O)Cc3ccc(cc3)OCc3cn2nn3)N(C(=O)[C@@H](NC(=O)[C@H](C)NC)C(C)(C)C)C1)C(C)(C)C : 8.00 to 9.00

Please look at the following compound next.
Task: Report pIC50, nothing else, for this compound: CN[C@@H](C)C(=O)N[C@H](C(=O)N1C[C@@H]2C[C@H]1C(=O)N[C@@H](Cc1ccc3ccccc3c1)C(=O)N[C@H](C(=O)O)Cc1ccc(cc1)OCc1cn(nn1)[C@H]1C[C@@H](C(=O)N[C@@H](Cc3ccc4ccccc4c3)C(=O)N[C@H](C(=O)NC(CO)CO)Cc3ccc(cc3)OCc3cn2nn3)N(C(=O)[C@@H](NC(=O)[C@H](C)NC)C(C)(C)C)C1)C(C)(C)C
Result: 8.00 to 9.00

---

Molecular target: N-His-Tb-BIR3(241-356, XIAP) (Homo sapiens)
Experiment: XIAP-BIR3 SMAC Peptide Fluorescence Polarization Assay (FPA)
Format: binding
pIC50: −log10 of the molar value.
A collection of compounds and their measured pIC50

Use the examples below as a reference point.
CN[C@@H](C)C(=O)N[C@H](C(=O)N1C[C@@H]2C[C@H]1C(=O)N[C@@H](Cc1ccccc1)C(=O)N[C@H](C(=O)O)Cc1ccc(cc1)OCc1cn(nn1)[C@H]1C[C@@H](C(=O)N[C@@H](Cc3ccccc3)C(=O)N[C@H](C(=O)O)Cc3ccc(cc3)OCc3cn2nn3)N(C(=O)[C@@H](NC(=O)[C@H](C)NC)C2CCCCC2)C1)C1CCCCC1 [Compound 120] : > 7.30
CN[C@@H](C)C(=O)N[C@H](C(=O)N1C[C@@H]2C[C@H]1C(=O)N[C@@H](Cc1ccccc1)C(=O)N[C@H](C(=O)O)Cc1ccc(cc1)OCc1cn(nn1)[C@H]1C[C@@H](C(=O)N[C@@H](Cc3ccccc3)C(=O)N[C@H](C(=O)O)Cc3ccc(cc3)OCc3cn2nn3)N(C(=O)[C@@H](NC(=O)[C@H](C)NC)C(C)C)C1)C(C)C [Compound 101] : 7.00 to 7.30
CN[C@@H](C)C(=O)N[C@H](C(=O)N1C[C@@H]2C[C@H]1C(=O)N[C@@H](COCc1ccccc1)C(=O)N[C@H](C(=O)O)Cc1ccc(cc1)OCc1cn(nn1)[C@H]1C[C@@H](C(=O)N[C@@H](COCc3ccccc3)C(=O)N[C@H](C(=O)O)Cc3ccc(cc3)OCc3cn2nn3)N(C(=O)[C@@H](NC(=O)[C@H](C)NC)C(C)C)C1)C(C)C [Compound 123] : < 7.00
CN[C@@H](C)C(=O)N[C@H](C(=O)N1C[C@@H]2C[C@H]1C(=O)N[C@@H](Cc1ccccc1)C(=O)N[C@H](C(=O)N1CCN(C)CC1)Cc1ccc(cc1)OCc1cn(nn1)[C@H]1C[C@@H](C(=O)N[C@@H](Cc3ccccc3)C(=O)N[C@H](C(=O)N3CCN(C)CC3)Cc3ccc(cc3)OCc3cn2nn3)N(C(=O)[C@@H](NC(=O)[C@H](C)NC)C(C)C)C1)C(C)C [Compound 104] : 7.00 to 7.30
CN[C@@H](C)C(=O)N[C@H](C(=O)N1C[C@@H]2C[C@H]1C(=O)N[C@@H](Cc1cccc3ccccc13)C(=O)N[C@H](C(=O)O)Cc1ccc(cc1)COc1cn(nn1)[C@H]1C[C@@H](C(=O)N[C@@H](Cc3cccc4ccccc34)C(=O)N[C@H](C(=O)O)Cc3ccc(cc3)OCc3cn2nn3)N(C(=O)[C@@H](NC(=O)[C@H](C)NC)C(C)C)C1)C(C)C [Compound 111] : > 7.30

Please look at the following compound next.
Task: Report pIC50, nothing else, for this compound: CN[C@@H](C)C(=O)N[C@H](C(=O)N1C[C@@H]2C[C@H]1C(=O)N[C@@H](Cc1c[nH]c3ccccc13)C(=O)N[C@H](C(=O)O)Cc1ccc(cc1)OCc1cn(nn1)[C@H]1C[C@@H](C(=O)N[C@@H](Cc3c[nH]c4ccccc34)C(=O)N[C@H](C(=O)O)Cc3ccc(cc3)OCc3cn2nn3)N(C(=O)[C@@H](NC(=O)[C@H](C)NC)C(C)C)C1)C(C)C [Compound 125]
Result: > 7.30
